Below are pIC50 values recorded for Serine/threonine-protein kinase pim-1 (Homo sapiens, UniProt P11309).
Interpret pIC50 as the negative base-10 log of the concentration measured in mol/L.

N#CCCCCn1c2ccccc2c2ccc3c(C=O)c[nH]c3c21 7.34

Here is the next item to consider.
[Q] # return pIC50 of "CN(C)CCCCn1c2ccccc2c2ccc3c(C=O)c[nH]c3c21" (system: Serine/threonine-protein kinase pim-1 (Homo sapiens, UniProt P11309))
Sequence (P11309 whole entry): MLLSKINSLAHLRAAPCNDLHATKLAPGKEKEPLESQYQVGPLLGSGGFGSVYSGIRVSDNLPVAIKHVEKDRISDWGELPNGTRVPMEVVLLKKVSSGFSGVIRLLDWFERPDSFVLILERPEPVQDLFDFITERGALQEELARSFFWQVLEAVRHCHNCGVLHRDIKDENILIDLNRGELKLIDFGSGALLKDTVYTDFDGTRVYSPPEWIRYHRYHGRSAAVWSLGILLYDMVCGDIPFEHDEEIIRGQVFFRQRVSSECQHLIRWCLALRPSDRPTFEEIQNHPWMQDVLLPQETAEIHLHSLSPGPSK
[A] 7.12

---

- assayed system: Serine/threonine-protein kinase pim-3 (Homo sapiens, UniProt Q86V86)
observable: pIC50
Interpret pIC50 as the negative base-10 log of the concentration measured in mol/L.

[Q] # return pIC50 of "N#CCCCCn1c2ccccc2c2ccc3c(C=O)c[nH]c3c21" (system: Serine/threonine-protein kinase pim-3 (Homo sapiens, UniProt Q86V86))
[A] 7.39
